assay: physchem; settings: pH 6.2, aqueous buffer, thermodynamic from solid
quantity: solubility

// query solubility value for entry N[C@@H](Cc1c[nH]c2ccccc12)C(=O)O [tryptophan]
~70 mM

----------
test: Solubility in water; type: physicochemical; settings: water; without vancomycin; read-out: tryptophan solubility in water
quantity: solubility

// query solubility value for entry N[C@@H](Cc1c[nH]c2ccccc12)C(=O)O
~14 mg/mL
